- measurementProtocol: solubility
- Format: physicochemical
- condition: water; read-out: solubility in water
valueType: solubility

So, O=C(CCCOc1ccc2nc3[nH]c(=O)[nH]c3cc2c1)N1CCN(c2ccccc2)CC1 [reference compound] ? Its solubility was < 10 µg/mL

---

- Test system: ferrets
- measurementProtocol: in vivo inotropic activity in anesthetized ferrets (hemodynamic parameters and right ventricular contractile force)
- Set-up: species or system ferret
- condition: Mustela putorius, intraduodenal, 1 h; 3 mg/kg intraduodenally; monitored 60 minutes; read-out: Ferret, Maximum % Change, HR (heart rate)
valueType: change in vivo at 3 mg/kg (%)
Quick reminder: number only, in %, skip the unit.

Field: example entries. Status: answers known.
lineNotation | unitsLabel | experimentalValue
O=C(CCCOc1ccc2nc3[nH]c(=O)[nH]c3cc2c1)N1CCN(Cc2cccc(C(F)(F)F)c2)CC1 | % | 12
O=C(CCCOc1ccc2nc3[nH]c(=O)[nH]c3cc2c1)N1CCN(Cc2ccccc2)CC1 | % | 31
O=C(CCCOc1ccc2nc3[nH]c(=O)[nH]c3cc2c1)N1CCN(C2CCCCCC2)CC1 | % | 17

We now examine a further compound.
Measured change in vivo at 3 mg/kg, `O=C(CCCOc1ccc2nc3[nH]c(=O)[nH]c3cc2c1)N1CCN(c2ccccn2)CC1` : 12

---

- Tested on: ferrets
- measurementProtocol: in vivo inotropic activity in anesthetized ferrets (hemodynamic parameters and right ventricular contractile force)
- Set-up: species or system ferret
- condition: Mustela putorius, intraduodenal, 1 h; 3 mg/kg intraduodenally; monitored 60 minutes; read-out: Ferret, Maximum % Change, HR (heart rate)
Recorded change in vivo at 3 mg/kg by entry

Record excerpt, results attached:
lineNotation | change in vivo at 3 mg/kg
O=C(CCCOc1ccc2nc3[nH]c(=O)[nH]c3cc2c1)N1CCN(Cc2cccs2)CC1 | 16%
O=C(CCCOc1ccc2nc3[nH]c(=O)[nH]c3cc2c1)N1CCN(Cc2ccc(F)cc2)CC1 | 21%
O=C(CCCOc1ccc2nc3[nH]c(=O)[nH]c3cc2c1)N1CCN(CC2CCCCC2)CC1 | 29%

# next molecule below
# change in vivo at 3 mg/kg (molecule: `COc1ccc(CN2CCN(C(=O)CCCOc3ccc4nc5[nH]c(=O)[nH]c5cc4c3)CC2)cc1` ) is 17%

---

- System: ferrets
- measurementProtocol: in vivo inotropic activity in anesthetized ferrets (hemodynamic parameters and right ventricular contractile force)
- Parameters: species or system ferret
- condition: Mustela putorius, intraduodenal, 1 h; 3 mg/kg intraduodenally; monitored 60 minutes; read-out: Ferret, Maximum % Change, MAP (mean arterial blood pressure)
Param label: returns condition met when change in vivo at 3 mg/kg < -20%, returns condition not met otherwise, including exact equality.

Here's what some known entries look like.
compound | category
O=C(CCCOc1ccc2nc3[nH]c(=O)[nH]c3cc2c1)N1CCN(CC2CCCCC2)CC1 [Example 22] | condition not met
O=C(CCCOc1ccc2nc3[nH]c(=O)[nH]c3cc2c1)N1CCN(Cc2ccccc2)CC1 [Example 11] | condition met
O=C(CCCOc1ccc2nc3[nH]c(=O)[nH]c3cc2c1)N1CCN(C2CCCCCC2)CC1 [Example 25] | condition not met
COc1ccc(CN2CCN(C(=O)CCCOc3ccc4nc5[nH]c(=O)[nH]c5cc4c3)CC2)cc1 [Example 15] | condition met
O=C(CCCOc1ccc2nc3[nH]c(=O)[nH]c3cc2c1)N1CCN(Cc2cccs2)CC1 [Example 16] | condition met
O=C(CCCOc1ccc2nc3[nH]c(=O)[nH]c3cc2c1)N1CCN(c2ccccn2)CC1 [Example 19] | condition not met
O=C(CCCOc1ccc2nc3[nH]c(=O)[nH]c3cc2c1)N1CCN(Cc2ccc(F)cc2)CC1 [Example 13] | condition not met

Please examine the following record next.
Record O=C(CCCOc1ccc2nc3[nH]c(=O)[nH]c3cc2c1)N1CCN(Cc2cccc(C(F)(F)F)c2)CC1 [Example 14] : is its change in vivo at 3 mg/kg strictly below -20%?
condition not met

---

- measurementProtocol: solubility
- Assay type: physicochemical
- condition: 2.0n hcl; read-out: solubility in 2.0N HCl
valueType: solubility

solubility in this record for O=C(CCCOc1ccc2nc3[nH]c(=O)[nH]c3cc2c1)N1CCN(c2ccccc2)CC1 [reference compound] : < 10 µg/mL

---

- targetOfAssay: cyclic AMP phosphodiesterase (PDE) enzyme obtained from human platelets (Homo sapiens)
- Construct: phosphodiesterase (PDE) enzyme obtained from human platelets; from tissue; host or cells: human platelets
- Sequence (Q14432 whole entry): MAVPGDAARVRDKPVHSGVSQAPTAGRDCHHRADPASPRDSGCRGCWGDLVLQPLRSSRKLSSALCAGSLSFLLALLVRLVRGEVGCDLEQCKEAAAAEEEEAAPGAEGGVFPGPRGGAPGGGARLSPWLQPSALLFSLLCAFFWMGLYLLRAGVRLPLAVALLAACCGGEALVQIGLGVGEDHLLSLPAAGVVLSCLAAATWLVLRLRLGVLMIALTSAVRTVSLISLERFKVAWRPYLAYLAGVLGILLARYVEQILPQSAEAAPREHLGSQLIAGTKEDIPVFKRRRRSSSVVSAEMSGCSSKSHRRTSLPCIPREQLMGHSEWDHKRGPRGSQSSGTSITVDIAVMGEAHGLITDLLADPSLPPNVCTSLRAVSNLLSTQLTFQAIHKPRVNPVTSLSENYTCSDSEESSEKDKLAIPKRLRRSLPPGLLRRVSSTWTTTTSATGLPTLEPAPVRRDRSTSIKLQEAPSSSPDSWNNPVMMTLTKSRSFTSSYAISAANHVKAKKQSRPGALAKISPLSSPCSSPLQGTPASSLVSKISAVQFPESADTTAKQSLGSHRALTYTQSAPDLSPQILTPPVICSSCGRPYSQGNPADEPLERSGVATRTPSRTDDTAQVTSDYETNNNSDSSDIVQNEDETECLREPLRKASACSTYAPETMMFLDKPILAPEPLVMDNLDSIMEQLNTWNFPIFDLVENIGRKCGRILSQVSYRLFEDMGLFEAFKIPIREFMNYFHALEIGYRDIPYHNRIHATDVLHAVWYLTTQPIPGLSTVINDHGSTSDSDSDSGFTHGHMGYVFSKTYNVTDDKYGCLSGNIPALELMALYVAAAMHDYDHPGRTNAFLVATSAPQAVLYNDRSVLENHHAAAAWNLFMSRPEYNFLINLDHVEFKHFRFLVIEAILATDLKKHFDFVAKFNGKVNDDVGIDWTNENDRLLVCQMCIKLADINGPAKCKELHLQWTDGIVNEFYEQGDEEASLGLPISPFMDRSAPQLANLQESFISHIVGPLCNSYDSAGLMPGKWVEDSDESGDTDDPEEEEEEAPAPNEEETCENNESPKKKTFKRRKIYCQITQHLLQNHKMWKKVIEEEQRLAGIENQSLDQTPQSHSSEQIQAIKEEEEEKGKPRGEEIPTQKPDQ
- measurementProtocol: inhibition of cyclic AMP phosphodiesterase
- Format: biochemical
- condition: Table I; human platelet PDE; read-out: cAMP PDE IC50 (m)
valueType: IC50 (nM)
Kindly answer with a numeric value in nM, unit omitted.

The following molecules have reported results that may help.
lineNotation | targetOfAssay | unitsLabel | experimentalValue
O=C(CCCOc1ccc2nc3[nH]c(=O)[nH]c3cc2c1)N1CCN(Cc2cccc(C(F)(F)F)c2)CC1 | cyclic AMP phosphodiesterase (PDE) enzyme obtained from human platelets (Homo sapiens) | nM | 9
O=C(CCCOc1ccc2nc3[nH]c(=O)[nH]c3cc2c1)N1CCN(Cc2cccs2)CC1 | cyclic AMP phosphodiesterase (PDE) enzyme obtained from human platelets (Homo sapiens) | nM | 0.7
COc1ccc(CN2CCN(C(=O)CCCOc3ccc4nc5[nH]c(=O)[nH]c5cc4c3)CC2)cc1 | cyclic AMP phosphodiesterase (PDE) enzyme obtained from human platelets (Homo sapiens) | nM | 3
O=C(CCCOc1ccc2nc3[nH]c(=O)[nH]c3cc2c1)N1CCN(c2ccccn2)CC1 | cyclic AMP phosphodiesterase (PDE) enzyme obtained from human platelets (Homo sapiens) | nM | 5
O=C(CCCOc1ccc2nc3[nH]c(=O)[nH]c3cc2c1)N1CCN(C2CCCCCC2)CC1 | cyclic AMP phosphodiesterase (PDE) enzyme obtained from human platelets (Homo sapiens) | nM | 0.9
O=C(CCCOc1ccc2nc3[nH]c(=O)[nH]c3cc2c1)N1CCN(Cc2ccccc2)CC1 | cyclic AMP phosphodiesterase (PDE) enzyme obtained from human platelets (Homo sapiens) | nM | 0.7

Now turn to the next molecule.
`O=C(CCCOc1ccc2nc3[nH]c(=O)[nH]c3cc2c1)N1CCN(Cc2ccc(F)cc2)CC1` has a reported IC50 of 2

The reported numbers originate from patent US4943573A.
